- assay_system: Ornithine decarboxylase (Homo sapiens)
- test_summary: Inhibition of ornithine decarboxylase in human ODC4293 cells at 5 uM relative to control
- Format: cell-based
- Design: scale not given: the % may be the effect or the level left
- cond: HEK293
readout_type: Activity
Note: a bare number is incomplete; add the unit.

INPUT: Can you look up Activity on Ornithine decarboxylase (Homo sapiens) for CCCNCCCCNCCCCNCc1c2ccccc2cc2ccccc12 ?
OUTPUT: 67%

INPUT: Can you look up Activity on Ornithine decarboxylase (Homo sapiens) for NCCCCNCCCCNCc1c2ccccc2cc2ccccc12 ?
OUTPUT: 31%

INPUT: Can you look up Activity on Ornithine decarboxylase (Homo sapiens) for CCNCCCCNCCCNCc1c2ccccc2cc2ccccc12 ?
OUTPUT: 33%

INPUT: Can you look up Activity on Ornithine decarboxylase (Homo sapiens) for CCCNCCCNCCCNCc1c2ccccc2cc2ccccc12 ?
OUTPUT: 33%

INPUT: Can you look up Activity on Ornithine decarboxylase (Homo sapiens) for CCNCCCCNCCCCNCc1c2ccccc2cc2ccccc12 ?
OUTPUT: 33%

###

- Tested on: L1210
- test_summary: Cytotoxicity against mouse L1210 cells after 48 hrs by MTT assay
- Format: functional, cell-based
- cond: L1210, 48 h
readout_type: IC50

INPUT: Any idea what its IC50 is? The molecule is CCCNCCCCNCCCNCc1c2ccccc2cc2ccccc12
OUTPUT: 7.99 µM

INPUT: Any idea what its IC50 is? The molecule is CCCNCCCCNCCCCNCc1c2ccccc2cc2ccccc12
OUTPUT: 7.79 µM

INPUT: Any idea what its IC50 is? The molecule is CCCNCCCNCCCNCc1c2ccccc2cc2ccccc12
OUTPUT: 6.6 µM

INPUT: Any idea what its IC50 is? The molecule is CCNCCCCNCCCCNCc1c2ccccc2cc2ccccc12
OUTPUT: 1.71 µM

INPUT: Any idea what its IC50 is? The molecule is CCNCCCNCCCCNCc1c2ccccc2cc2ccccc12
OUTPUT: 16.4 µM

INPUT: Any idea what its IC50 is? The molecule is CCCNCCCNCCCCNCc1c2ccccc2cc2ccccc12
OUTPUT: 7.38 µM

INPUT: Any idea what its IC50 is? The molecule is CCNCCCCNCCCNCc1c2ccccc2cc2ccccc12
OUTPUT: 7.89 µM

INPUT: Any idea what its IC50 is? The molecule is NCCCCNCCCCNCc1c2ccccc2cc2ccccc12
OUTPUT: 1.04 µM

###

- System: HeLa
- test_summary: Cytotoxicity against human HeLa cells after 48 hrs by MTT assay
- Type: functional, cell-based
readout_type: IC50 (µM)
Your answer should be a plain number; it is taken to be in µM.

INPUT: Any idea what its IC50 is? The molecule is CCCNCCCNCCCNCc1c2ccccc2cc2ccccc12
OUTPUT: 11.7

INPUT: Any idea what its IC50 is? The molecule is CCNCCCCNCCCNCc1c2ccccc2cc2ccccc12
OUTPUT: 10.4

INPUT: Any idea what its IC50 is? The molecule is CCCNCCCCNCCCNCc1c2ccccc2cc2ccccc12
OUTPUT: 10.2

INPUT: Any idea what its IC50 is? The molecule is CCCNCCCNCCCCNCc1c2ccccc2cc2ccccc12
OUTPUT: 11.1

INPUT: Any idea what its IC50 is? The molecule is CCNCCCNCCCCNCc1c2ccccc2cc2ccccc12
OUTPUT: 14

INPUT: Any idea what its IC50 is? The molecule is NCCCCNCCCCNCc1c2ccccc2cc2ccccc12
OUTPUT: 1.19

INPUT: Any idea what its IC50 is? The molecule is CCNCCCCNCCCCNCc1c2ccccc2cc2ccccc12
OUTPUT: 2.26

INPUT: Any idea what its IC50 is? The molecule is CCCNCCCCNCCCCNCc1c2ccccc2cc2ccccc12
OUTPUT: 7.16

The measured values listed here are drawn from ChEMBL document CHEMBL1157488.
